Reported Kd values, UniProt:O68720.
Sequence (O68720 164-468 limits assumed): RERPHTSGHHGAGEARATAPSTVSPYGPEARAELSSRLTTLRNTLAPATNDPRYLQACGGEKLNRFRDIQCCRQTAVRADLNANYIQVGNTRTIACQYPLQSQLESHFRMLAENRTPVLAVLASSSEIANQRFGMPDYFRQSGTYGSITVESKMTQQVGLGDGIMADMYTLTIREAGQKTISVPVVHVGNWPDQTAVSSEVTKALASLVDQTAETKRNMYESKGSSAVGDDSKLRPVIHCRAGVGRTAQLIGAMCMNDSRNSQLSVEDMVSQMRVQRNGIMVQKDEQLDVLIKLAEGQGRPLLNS
Field: numeric (mM). Do not append units.

O=C(O)c1ccc(/C=N/OCc2ccc(-c3cccc(C(F)(F)P(=O)(O)O)c3)cc2)o1 [compound 3]; 0.239

Now, please, on to the next molecule.
Entry N[C@@H](Cc1ccc(OP(=O)(O)O)cc1)C(=O)O [L-phosphotyrosine, reference compound] , tested on UniProt:O68720, has a reported Kd of 24.4
